experiment: Inhibition of Cdk4/cyclin D1
Metric: pIC50
Scale explanation: pIC50 corresponds to minus log10 of a concentration expressed in moles per litre.

Ask: I would be grateful if you could share the reported pIC50 for NS(=O)(=O)c1ccc(Nc2nc(OCC3CCCCC3)c3nc[nH]c3n2)cc1 .
Reply: 5.80

###

biological target: Calcium/calmodulin-dependent protein kinase type II subunit delta (Homo sapiens) (UniProt Q13557)
Sequence (Q13557 whole entry): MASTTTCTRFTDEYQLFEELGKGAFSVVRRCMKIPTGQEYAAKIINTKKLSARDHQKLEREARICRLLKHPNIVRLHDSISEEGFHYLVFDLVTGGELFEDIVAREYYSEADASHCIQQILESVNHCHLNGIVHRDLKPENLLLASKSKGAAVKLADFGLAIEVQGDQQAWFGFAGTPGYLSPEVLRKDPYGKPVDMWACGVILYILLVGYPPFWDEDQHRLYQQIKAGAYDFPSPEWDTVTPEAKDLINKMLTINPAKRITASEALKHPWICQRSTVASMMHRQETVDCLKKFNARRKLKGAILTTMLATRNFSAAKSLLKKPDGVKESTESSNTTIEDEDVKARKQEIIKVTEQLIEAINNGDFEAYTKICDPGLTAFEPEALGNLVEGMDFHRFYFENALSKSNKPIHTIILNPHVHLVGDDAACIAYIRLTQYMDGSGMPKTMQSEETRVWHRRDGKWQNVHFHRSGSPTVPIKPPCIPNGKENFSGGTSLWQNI
Cut-off -0.4 °C on ΔTm: below means yes (1), at or above means no (0).

Record excerpt, results attached:
{"Molecule": "O=C1NC(=O)C(c2cn(CCCn3ccnc3)c3ccccc23)=C1Nc1ccccc1", "Label": "no (0)"}
{"Molecule": "N#C/C(=C1/Nc2ccccc2S1)c1ccnc(NCCc2cccnc2)n1", "Label": "no (0)"}
{"Molecule": "O=C1c2ccccc2-[n+]2ccc3c([nH]c4ccccc43)c21 [FASCAPLYSIN CHLORIDE]", "Label": "yes (1)"}

Ask: Lab note: ΔTm threshold -0.4 °C. Does this molecule come in strictly under it? Cn1cc(C2=C(c3cn(CCCN)c4ccccc34)C(=O)NC2=O)c2ccccc21
Reply: yes (1)

Ask: Lab note: ΔTm threshold -0.4 °C. Does this molecule come in strictly under it? CN(C)c1ccc(CC2C(=O)Nc3ccccc32)cc1 (stereo not given)
Reply: no (0)

Ask: Lab note: ΔTm threshold -0.4 °C. Does this molecule come in strictly under it? CCCNC(=O)Nc1ccc(Oc2ncnc3cc(OC)c(OC)cc23)cc1Cl
Reply: no (0)

Ask: Lab note: ΔTm threshold -0.4 °C. Does this molecule come in strictly under it? Cc1ccc(NC(=O)c2ccc(CN3CCN(C)CC3)cc2)cc1Nc1nccc(-c2cccnc2)n1
Reply: no (0)

Ask: Lab note: ΔTm threshold -0.4 °C. Does this molecule come in strictly under it? COc1ccc2c(c[n+](C)c3c4cc5c(cc4ccc23)OCO5)c1OC [CHELERYTHRINE CHLORIDE]
Reply: yes (1)
